// Max fold increase of activity lookup, one value per entry
# Target desc: telomerase (Homo sapiens, UniProt O14746)
# Sequence (O14746 whole entry): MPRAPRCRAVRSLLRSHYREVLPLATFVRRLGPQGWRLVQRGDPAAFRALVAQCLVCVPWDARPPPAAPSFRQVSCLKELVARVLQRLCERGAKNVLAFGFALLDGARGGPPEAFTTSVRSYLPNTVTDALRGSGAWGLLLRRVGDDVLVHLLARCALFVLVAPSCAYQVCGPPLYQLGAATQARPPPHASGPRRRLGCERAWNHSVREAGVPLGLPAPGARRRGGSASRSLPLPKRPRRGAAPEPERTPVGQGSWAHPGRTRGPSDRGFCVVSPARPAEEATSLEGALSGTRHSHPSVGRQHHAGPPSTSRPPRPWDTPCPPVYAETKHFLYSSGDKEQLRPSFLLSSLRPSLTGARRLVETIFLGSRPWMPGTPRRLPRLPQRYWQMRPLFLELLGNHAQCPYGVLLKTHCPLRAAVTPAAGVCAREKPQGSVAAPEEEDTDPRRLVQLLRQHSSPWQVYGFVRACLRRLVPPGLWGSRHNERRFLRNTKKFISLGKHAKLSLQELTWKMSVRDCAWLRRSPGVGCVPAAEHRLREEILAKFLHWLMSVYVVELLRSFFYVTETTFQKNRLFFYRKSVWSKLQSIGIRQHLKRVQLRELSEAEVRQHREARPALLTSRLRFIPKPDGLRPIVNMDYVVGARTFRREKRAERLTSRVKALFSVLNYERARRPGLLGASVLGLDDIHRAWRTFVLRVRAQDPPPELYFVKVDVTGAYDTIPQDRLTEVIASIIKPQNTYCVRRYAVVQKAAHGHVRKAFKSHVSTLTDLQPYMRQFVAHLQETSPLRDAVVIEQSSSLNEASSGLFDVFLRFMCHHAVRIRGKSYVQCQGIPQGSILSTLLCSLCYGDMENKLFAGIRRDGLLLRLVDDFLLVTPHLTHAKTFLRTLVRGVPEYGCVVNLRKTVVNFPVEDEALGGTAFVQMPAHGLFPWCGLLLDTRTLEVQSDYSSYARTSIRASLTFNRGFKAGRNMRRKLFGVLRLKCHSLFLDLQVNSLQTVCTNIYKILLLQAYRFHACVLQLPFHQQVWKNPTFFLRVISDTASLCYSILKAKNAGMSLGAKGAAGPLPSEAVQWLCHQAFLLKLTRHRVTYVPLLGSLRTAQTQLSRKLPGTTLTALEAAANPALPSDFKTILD
# Test: Keratinocyte cell/TRAP assay (HEKneo-P cells)
# Format: cell-based
# Parameters: host or cells: HEKneo-P (pooled neonatal human epidermal keratinocytes)
Measurement name: Max fold increase of activity (fold)

Molecule	Measurement name	Recorded value
CCC(C)[C@H](N)C(=O)OC1CC2C3(C)CC(O)C(C4(C)CCC(C(C)(C)O)O4)C3(C)CCC23CC32CCC(OC(=O)[C@@H](N)C(C)CC)C(C)(C)C12 (stereo partly shown)	Max fold increase of activity	3
CC(C)(O)[C@@H]1CC[C@](C)([C@H]2[C@@H](O)C[C@@]3(C)[C@@H]4C[C@H](O)[C@H]5C(C)(C)[C@@H](O)CC[C@@]56C[C@@]46CC[C@]23C)O1 [Compound 2, reference compound]	Max fold increase of activity	3.3
CC(C)[C@H](N)C(=O)OC1CC2(C)C3CC(O)C4C(C)(C)C(O)CCC45CC35CCC2(C)C1C1(C)CCC(C(C)(C)O)O1 (stereo partly shown)	Max fold increase of activity	3.0
CC(C)[C@H](N)C(=O)O[C@H]1CC2C3(CC[C@]4(C)[C@@H]([C@@]5(C)CC[C@@H](C(C)(C)O)O5)[C@@H](O)C[C@@]24C)C[C@@]32CCC(=O)C(C)(C)[C@H]12.Cl (stereo partly shown)	Max fold increase of activity	3.5
